System: BT-549
Test: Antiproliferative activity against human BT-549 cells assessed as cell growth inhibition at 10 uM incubated for 48 hrs by SRB assay relative to control
Type: functional
Conditions: read-out: GI
The following molecules are listed with their measured inhibition of growth at 10 µM values.
State the answer as a number, implicitly in %.

Sample answers from the record:
{"compound-smiles": "Cc1nc2c(cnn2-c2ccccc2)c(=O)n1-c1ccc(NC(=O)c2ccccc2)cc1", "inhibition of growth at 10 µM / %": 39.1}
{"compound-smiles": "Cc1nc2c(cnn2-c2ccccc2)c(=O)n1-c1ccc(N)cc1", "inhibition of growth at 10 µM / %": 31.2}

Let's switch to this molecule now.
Request: Consider the molecule Cc1nc2c(cnn2-c2ccccc2)c(=O)n1-c1ccc(NC(=O)c2ccc(Cl)cc2)cc1 and give its measured inhibition of growth at 10 µM.
Response: 36

* * *

Test system: MDA-MB-435
Assay: Antiproliferative activity against human MDA-MB-435 cells assessed as cell growth inhibition at 10 uM incubated for 48 hrs by SRB assay relative to control
Format: functional
Settings: read-out: GI
The following molecules are listed with their measured inhibition of growth at 10 µM values.
State the answer as a number, implicitly in %.

Request: Consider the molecule Cc1ccc(C(=O)Nc2ccc(-n3c(C)nc4c(cnn4-c4ccccc4)c3=O)cc2)cc1 and give its measured inhibition of growth at 10 µM.
Response: 29.4

Request: Consider the molecule COc1ccc(/C=C/C(=O)c2ccc(-n3c(C)nc4c(cnn4-c4ccccc4)c3=O)cc2)cc1 and give its measured inhibition of growth at 10 µM.
Response: 88.8

* * *

Tested on: NCI-H522
Experiment: Antiproliferative activity against human NCI-H522 cells assessed as cell growth inhibition at 10 uM incubated for 48 hrs by SRB assay relative to control
Type: functional
Conditions: read-out: GI
We use 30% as the dividing line for inhibition of growth at 10 µM: on or above the line is T, below is F.

{"compound-smiles": "Cc1ccc(C(=O)Nc2ccc(-n3c(C)nc4c(cnn4-c4ccccc4)c3=O)cc2)cc1", "qualitative-label": "F"}
{"compound-smiles": "Cc1nc2c(cnn2-c2ccccc2)c(=O)n1-c1ccc(NC(=O)c2ccc(Cl)cc2)cc1", "qualitative-label": "T"}

Request: API: above_or_equal(metric=inhibition of growth at 10 µM, cutoff=30%) for item Cc1nc2c(cnn2-c2ccccc2)c(=O)n1-c1ccc(NC(=O)c2ccc([N+](=O)[O-])cc2)cc1
Response: T

Request: API: above_or_equal(metric=inhibition of growth at 10 µM, cutoff=30%) for item CC(=O)Nc1ccc(-n2c(C)nc3c(cnn3-c3ccccc3)c2=O)cc1
Response: F

Request: API: above_or_equal(metric=inhibition of growth at 10 µM, cutoff=30%) for item Cc1nc2c(cnn2-c2ccccc2)c(=O)n1-c1ccc(N2C(=O)C=CC2=O)cc1
Response: F

Request: API: above_or_equal(metric=inhibition of growth at 10 µM, cutoff=30%) for item Cc1nc2c(cnn2-c2ccccc2)c(=O)n1-c1ccc(/N=C2\C(=O)Nc3ccccc32)cc1
Response: F

Request: API: above_or_equal(metric=inhibition of growth at 10 µM, cutoff=30%) for item Cc1nc2c(cnn2-c2ccccc2)c(=O)n1-c1ccc(N2C(=O)c3ccccc3C2=O)cc1
Response: F

* * *

System: SN12C
Assay: Antiproliferative activity against human SN12C cells assessed as cell growth inhibition at 10 uM incubated for 48 hrs by SRB assay relative to control
Type: functional
Settings: read-out: GI
The following compounds are listed with their measured inhibition of growth at 10 µM values.

Sample answers from the record:
{"compound-smiles": "Cc1nc2c(cnn2-c2ccccc2)c(=O)n1-c1ccc(N2C(=O)C=CC2=O)cc1", "inhibition of growth at 10 µM": "< 15%"}
{"compound-smiles": "Cc1nc2c(cnn2-c2ccccc2)c(=O)n1-c1ccc(N2C(=O)c3ccccc3C2=O)cc1", "inhibition of growth at 10 µM": "< 15%"}

Let's switch to this compound now.
Request: Consider the compound Cc1nc2c(cnn2-c2ccccc2)c(=O)n1-c1ccc(NC(=O)c2ccco2)cc1 and give its measured inhibition of growth at 10 µM.
Response: < 15%
